What TGI was measured for each of the following?
# Tested on: OVCAR-5 ovarian
# Experiment Notes: NCI tumour cell line growth inhibition, 48 h

[Q] Value lookup for TGI; key = COc1ccc(-c2cc(=O)c3c(O)c(OC)c(OC)c(OC)c3o2)cc1
[A] > 100 µM

[Q] Please give the result for COC(=O)N[C@H]1CCc2c(Cl)c(OC)c(OC)c(OC)c2-c2ccc(SC)c(=O)cc21 too.
[A] > 94.8 µM

[Q] Please give the result for C=C(C)[C@H]1CC23C(=O)[C@@](C)(C[C@H]2C1(C)C)C(=O)C(C(=O)C(C)C)=C3O too.
[A] 40.8 µM

[Q] Please give the result for COc1ccc(C(=O)/C=C/SC(=NC#N)SC)cc1 too.
[A] 47.1 µM

[Q] Please give the result for Cc1cc(-c2ccccc2)nc2oc(=O)n(C)c12 too.
[A] > 100 µM

[Q] Please give the result for CC/C(=C/c1ccc(OC)cc1OC)[N+](=O)[O-] too.
[A] 22.2 µM

[Q] Please give the result for CCOC(=O)/C=C/c1cccc(F)c1 too.
[A] > 100 µM

[Q] Please give the result for O=c1c2cc([N+](=O)[O-])ccc2oc2nc3n(c(=O)c12)CCCS3 too.
[A] > 100 µM

[Q] Please give the result for O=c1c2c3c(sc2nc2n1N=C(c1ccc(Br)cc1)CS2)CCCC3 too.
[A] > 100 µM

[Q] Please give the result for COc1ccc2[nH]c(C(=O)OCc3ccc4c(Cl)cc(Cl)c(O)c4n3)cc2c1 too.
[A] 2.9 µM

[Q] Please give the result for CCOC(=O)c1c(SCc2cc(=O)[nH]c(=O)[nH]2)n(-c2ccccc2)c(=S)n(-c2ccccc2)c1=O too.
[A] > 100 µM

[Q] Please give the result for COc1ccc(C2c3cc4c(cc3OC(Nc3ccccc3)C2C)OCO4)cc1 (configuration not stated) too.
[A] > 100 µM

[Q] Please give the result for CC[PH+](CC)CC.[Cl][Au] too.
[A] 28.5 µM

[Q] Please give the result for CCOC(=O)N1CCN(c2c(N)nc(C)[nH]c2=O)CC1 too.
[A] > 100 µM

[Q] Please give the result for C[C@@H]1CC[C@@]2(NC1)O[C@H]1C[C@H]3[C@@H]4CC[C@H]5C[C@@H](O)CC[C@]5(C)[C@H]4CC[C@]3(C)[C@H]1[C@@H]2C too.
[A] > 100 µM

[Q] Please give the result for CCOC(=O)c1c(-c2ccccc2)c(OC)cn1C too.
[A] > 10 µM

[Q] Please give the result for CSc1nc(=O)c2nc(-c3cccs3)c(-c3cccs3)nc2n1C too.
[A] > 100 µM

[Q] Please give the result for CC1(C)N=C(N)N=C(N)N1c1cccc(Cl)c1 too.
[A] > 100 µM

[Q] Please give the result for Nc1cccc2c1C(=O)c1cccc(NC(=O)c3ccccc3)c1C2=O too.
[A] > 100 µM

[Q] Please give the result for CCC[CH2][Sn]1([CH2]CCC)[S]CC[N]1S(=O)(=O)c1ccc(C)cc1 too.
[A] 6.12 µM

[Q] Please give the result for O=C1Nc2cc(F)ccc2C1=O too.
[A] > 100 µM

[Q] Please give the result for COc1cc2nccc(Oc3ccc(NC(=O)c4cn(C(C)C)c(=O)n(-c5ccc(F)cc5)c4=O)cc3F)c2cc1OC too.
[A] > 100 µM

###

# System: A498 renal
# Experiment Notes: NCI tumour cell line growth inhibition, 48 h
Reported Metric: TGI

[Q] Value lookup for TGI; key = O=c1c2cc([N+](=O)[O-])ccc2oc2nc3n(c(=O)c12)CCCS3
[A] > 100 µM

[Q] Please give the result for C[As+](C)(c1ccc(Br)c([N+](=O)[O-])c1)c1ccc(Br)c([N+](=O)[O-])c1.O=[N+]([O-])O too.
[A] > 100 µM

[Q] Please give the result for Nc1c(N2CCOCC2)c(=O)nc2[nH]/c(=C\c3ccccc3O)c(=O)n12 too.
[A] > 100 µM

[Q] Please give the result for CC1=NOC(=O)/C1=C/c1ccc2c(c1)OCO2 too.
[A] 62.3 µM

[Q] Please give the result for CCOC(=O)c1c(-c2ccccc2)c(OC)cn1C too.
[A] > 10 µM

[Q] Please give the result for COc1ccc2c(c1OC)C(=O)N1C2=Cc2c(cc3c(c2OC)OCO3)CC1N(C)C (configuration not stated) too.
[A] > 100 µM

[Q] Please give the result for CSc1nc(Cl)c2c(n1)Sc1nc3ccccc3n1C2O (configuration not stated) too.
[A] > 100 µM

[Q] Please give the result for CC(=O)[CH-]C(=O)c1ccccc1.CC(=O)[CH-]C(=O)c1ccccc1.[O-]c1ccc2c(c1)OCO2.[O-]c1ccc2c(c1)OCO2.[Ti+4] too.
[A] 64.8 µM

[Q] Please give the result for CC(C)(C)c1ccnc(N=C2N=C(Nc3cc(C(C)(C)C)ccn3)c3ccccc32)c1 too.
[A] 53.4 µM

[Q] Please give the result for C[C@]12C[C@H](O)[C@H]3[C@@H](CCC4=CC(=O)CC[C@@]43C)[C@@H]1CC[C@@H]2c1csc(-c2ccccc2)n1 too.
[A] > 100 µM

[Q] Please give the result for CC(C)(C)/C(O)=C\c1nc2cc(F)c(F)cc2[nH]c1=O too.
[A] > 100 µM

[Q] Please give the result for CC(=O)/C(=N\Nc1ccc(Cl)cc1)C(C)=Nc1ccc(C)cc1 too.
[A] 85.2 µM

[Q] Please give the result for CC/C=N\N1C(N)=C(C#N)C(C#N)(C#N)C1CC (configuration not stated) too.
[A] > 100 µM

[Q] Please give the result for O=C(C(=C(I)I)c1ccccc1)c1ccccc1 too.
[A] 28.6 µM

[Q] Please give the result for COc1ccc(C2c3cc4c(cc3OC(Nc3ccccc3)C2C)OCO4)cc1 (configuration not stated) too.
[A] > 100 µM

[Q] Please give the result for CC(C)=C/C(CC(O)(C(F)(F)F)C(F)(F)F)=N\O too.
[A] > 100 µM

[Q] Please give the result for NC(=O)NN=C1Cc2ccccc2C1 too.
[A] > 100 µM

[Q] Please give the result for CC(=O)Oc1ccn2nc(C)c(Br)c2c1 too.
[A] > 100 µM

[Q] Please give the result for C[C@H]1C=C2C(=O)O[C@H]3CC[C@@H](C1)[C@@]23O too.
[A] 22.5 µM

[Q] Please give the result for O=c1c2c3c(sc2nc2n1N=C(c1ccc(Br)cc1)CS2)CCCC3 too.
[A] > 100 µM

[Q] Please give the result for CO[P@@]1(=O)O[C@@H](c2ccccc2)[C@H](O)[C@]1(O)c1ccccc1 too.
[A] > 100 µM

[Q] Please give the result for O=c1/c(=N\Nc2ccccc2)c2cccc3ccc4cccc1c4c32 too.
[A] > 100 µM

###

# Test system: IGROV1 ovarian
# Experiment Notes: NCI tumour cell line growth inhibition, 48 h
Reported Metric: TGI

[Q] Value lookup for TGI; key = CC[C@H](NC(=O)OC(C)(C)C)C(=O)NCP(=O)(OCc1ccc([N+](=O)[O-])cc1)OCc1ccc([N+](=O)[O-])cc1
[A] > 100 µM

[Q] Please give the result for CC1=C(C)SC(=C2Sc3c(n(C)c(=O)n(C)c3=O)S2)S1 too.
[A] > 100 µM

[Q] Please give the result for NC(=O)NN=C1Cc2ccccc2C1 too.
[A] > 100 µM

[Q] Please give the result for OC(CC(O)(C(F)(F)Cl)C(F)(F)Cl)c1ccccc1 (centres undefined) too.
[A] 0.0883 µM

[Q] Please give the result for N#Cc1cccc(C2C3=C(COC3=O)N(CCO)c3cc4c(cc32)OCO4)c1 (centres undefined) too.
[A] > 50 µM

[Q] Please give the result for CC1(C)C=C(/C=C2/N(S(=O)(=O)C(F)(F)F)C(/C=C3/N(S(=O)(=O)C(F)(F)F)C(C)(C#N)CC3(C)C)=CC2(C)C)N=C1/C=C1/CC(C)(C)C(=O)N1 (centres undefined) too.
[A] 62.9 µM

[Q] Please give the result for COc1cc(/C=N/N=C(\N)NO)c([N+](=O)[O-])cc1OC too.
[A] > 100 µM

[Q] Please give the result for Cc1cn(S(=O)(=O)c2ccccc2)c2c(OCc3ccccc3)cc(NC(=O)c3cc4cc([N+](=O)[O-])ccc4s3)cc12 too.
[A] > 100 µM

[Q] Please give the result for Cn1c(=O)cc(NNc2ccc(Cl)c(Cl)c2)[nH]c1=O too.
[A] 23.5 µM

###

# System: M14 melanoma
# Experiment Notes: NCI tumour cell line growth inhibition, 48 h
What TGI was measured for each of the following?

[Q] Value lookup for TGI; key = COc1ccc(S(=O)(=O)N(C(C)=O)c2ccccc2/C=C/c2cc[n+]([O-])cc2)cc1
[A] 8.08 µM

[Q] Please give the result for CCOC(=O)c1csc(NC(=O)CCN2CCN(C)CC2)n1 too.
[A] > 100 µM

[Q] Please give the result for NC(=O)NN=C1Cc2ccccc2C1 too.
[A] > 100 µM

[Q] Please give the result for CC1=CCCC2C(C=O)(C1)CC(C)C2(CO)CC/C(=C/CO)CO (stereo not given) too.
[A] > 100 µM

[Q] Please give the result for CSc1nc(Cl)c2c(n1)Sc1nc3ccccc3n1C2O (stereo not given) too.
[A] > 100 µM

[Q] Please give the result for O=P(O)(O)OCC1OC(n2cnc3c(NCc4ccccc4)ncnc32)C(O)C1O (stereo not given) too.
[A] > 100 µM

[Q] Please give the result for C=C1C(OC(C)=O)CC(OC(C)=O)C2(C)C(OC(C)=O)C(OC(C)=O)C3=C(C)C(OC(=O)/C=C/c4ccccc4)CC(C(OC(C)=O)C12)C3(C)C (stereo not given) too.
[A] > 100 µM

[Q] Please give the result for CN(C)CCCNc1nc2ccccc2c2[nH]c3ccccc3c12 too.
[A] 2.46 µM

[Q] Please give the result for CN(C)/N=N/c1nc2c(c(=O)n(C)c(=O)n2C)n1CC1CO1 (stereo not given) too.
[A] 32.6 µM

[Q] Please give the result for Oc1ccccc1/C=N/N1C(=S)N(C23CC4CC(CC(C4)C2)C3)C(=Nc2ccccc2)C1=Nc1ccccc1 too.
[A] > 100 µM
